# Tested on: HCV replicon cells
# experimental.protocol: HCV replicon FRET / luciferase assay (96-well plates)
# Type: cell-based
# study.conditions: Hepatitis C virus, Table 1a; HCV replicon; read-out: EC50
pEC50: −log10 of the molar value.
assay.endpoint: pEC50

# compound, target.or.system, observed
measured = [
    ("CNC(=O)c1c(-c2ccc(F)cc2)oc2ccc(-c3ccc(C(=O)N(C)Cc4cccnc4)cc3)cc12 [drawing 286]", "HCV replicon cells", "< 5.00"),
    ("CNC(=O)c1c(-c2ccc(F)cc2)oc2ccc(-c3ccc(-c4ccccc4)c(C(=O)NC(C)(C)c4ccccc4)c3)cc12", "HCV replicon cells", "> 6.60"),
    ("CNC(=O)c1c(-c2ccc(F)cc2)oc2ccc(-c3cccc(C(=O)Nc4ccccn4)c3)cc12", "HCV replicon cells", "> 6.60"),
    ("CNC(=O)c1c(-c2ccc(F)cc2)oc2ccc(-c3cccc(C(=O)Nc4ccon4)c3)cc12", "HCV replicon cells", "5.00 to 6.00"),
    ("CNC(=O)c1c(-c2ccc(F)cc2)oc2ccc(-c3cccc(C(=O)Nc4cccnc4)c3)cc12", "HCV replicon cells", "> 6.60"),
    ("CNC(=O)c1c(-c2ccc(F)cc2)oc2ccc(-c3cccc(C(=O)NC4CCC4)c3)cc12", "HCV replicon cells", "> 6.60"),
    ("CNC(=O)c1c(-c2ccc(F)cc2)oc2ccc(-c3cccc(-c4nnc(C(C)C)o4)c3)cc12", "HCV replicon cells", "> 6.60"),
    ("CNC(=O)c1c(-c2ccc(F)cc2)oc2ccc(-c3cccc(C(=O)Nc4cccc(CC(=O)O)c4)c3)cc12", "HCV replicon cells", "< 5.00"),
    ("CNC(=O)c1c(-c2ccc(F)cc2)oc2ccc(-c3cccc(C(=O)NS(=O)(=O)c4ccccc4)c3)cc12", "HCV replicon cells", "5.00 to 6.00"),
    ("CNC(=O)c1c(-c2ccc(F)cc2)oc2ccc(-c3cccc(C(=O)NC(C)(C)c4ccc(F)cc4)c3)cc12", "HCV replicon cells", "> 6.60"),
    ("CNC(=O)c1c(-c2ccc(F)cc2)oc2ccc(-c3cccc(C(=O)NCc4ccccc4)c3)cc12", "HCV replicon cells", "> 6.60"),
    ("CNC(=O)c1c(-c2ccc(F)cc2)oc2ccc(-c3cccc(C(=O)Nc4cc(C)nn4C)c3)cc12", "HCV replicon cells", "> 6.60"),
    ("CNC(=O)c1c(-c2ccc(F)cc2)oc2ccc(-c3ccc(C(=O)N(C)CCO)cc3)cc12", "HCV replicon cells", "< 5.00"),
    ("CCOC(=O)C1CCCN(C(=O)c2cccc(-c3ccc4oc(-c5ccc(F)cc5)c(C(=O)NC)c4c3)c2)C1 (centres unmarked)", "HCV replicon cells", "5.00 to 6.00"),
    ("CNC(=O)c1c(-c2ccc(F)cc2)oc2cc(NS(C)(=O)=O)c(-c3cccc(C(=O)NC(C)(C)c4ccccc4)c3)cc12", "HCV replicon cells", "> 6.60"),
    ("CNC(=O)c1c(-c2ccc(F)cc2)oc2ccc(-c3cccc(C(=O)Nc4ccnc(C)c4)c3)cc12", "HCV replicon cells", "6.00 to 6.60"),
    ("CNC(=O)c1c(-c2ccc(F)cc2)oc2ccc(-c3cccc(C(=O)N[C@@H](C)c4cccc(OC)c4)c3)cc12", "HCV replicon cells", "> 6.60"),
]
